# Tested on: HL-60(TB) leukemia
# experimental.protocol: NCI-60 one-dose screen, 48 h
# assay.conditions: 10 µM unless noted
This is part of a sample that, as a whole, favours compounds with a hit. Of some 83,000 tested, about 20% had one in any assay. Activity calls are given as the source filed them. Rule for the calls: active = growth percent below 10; inactive = the rest.
Tick one outcome: yes (active), no (inactive)

Solved cases below.
[[record]]
molecule = "C=CCOC(=O)C1=C(C)NC(=O)NC1c1c(Cl)n(C)c2ccccc12 (centres undefined)"
discrete_label = "no"

[[record]]
molecule = "CC(C)N1CCN(c2ccc(OC[C@H]3CO[C@](Cn4cncn4)(c4ccc(Cl)cc4Cl)O3)cc2)CC1"
discrete_label = "no"


What is the recorded call for this molecule in the test? Cc1ccc(N2C(=O)C=CC2=O)cc1 no

Hey, what did the test say about CN(CCCNC(=O)Cc1ccc2ccc3cccc4ccc1c2c34)CCCNc1cc(-c2ccc3ccccc3c2)nc2ccccc12 ? yes

Answer briefly: the call reported for CN1CCN(Cc2ccc(NC(=O)c3[nH]ncc3Nc3ccnc4ccnn34)cc2)CC1 in this assay. no

I would be grateful if you could indicate the recorded call for CC1(C)NCCC[C@]2(C)[C@H]3CC(=O)[C@H]4[C@@H]5C[C@](C)(CO)CC[C@]5(C)CC[C@@]4(C)[C@]3(C)CC[C@@H]12 . no

Hi team, can someone confirm the assay call for S=c1[nH]nc(Cc2ccccc2)c(=S)[nH]1 ? no

Please let me know the test result on file for CC(=O)c1ccc(NC(=O)CSc2nnc(-c3cc(-c4ccc(Cl)cc4)nc4ccccc34)o2)cc1 . no

Which result was noted for this molecule in the test: O=C(Nc1ccc(-n2ccc3c(NC(=O)c4ccccc4)nccc32)cc1)c1ccc(Cl)c(C(F)(F)F)c1 no
